Parameter Dmax: see the listing below.
- Assayed Target: KRAS G12C protein in NCI-H358 cells (Homo sapiens, UniProt P01116, G12C)
- Construct: endogenous in cells; host or cells: NCI-H358
- Sequence (P01116 1-188 isoform P01116-2 G12C): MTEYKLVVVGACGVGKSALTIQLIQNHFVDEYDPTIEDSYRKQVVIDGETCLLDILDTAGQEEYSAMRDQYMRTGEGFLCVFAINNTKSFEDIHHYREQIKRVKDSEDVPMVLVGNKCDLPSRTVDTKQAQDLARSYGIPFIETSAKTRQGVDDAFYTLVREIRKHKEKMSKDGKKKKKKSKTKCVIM
- Test: KRAS degradation assay (Western Blot) in NCI-H358 cells
- Format: cell-based
- Experimental Parameters: 24 h

Compound | Dmax
C#Cc1c(F)ccc2cc(O)cc(-c3ncc4c(N5CCC[C@@](C)(O)C5)nc(OCC5(CN6CCN(CC7CCC8(CC7)CCN(C(=O)c7ccc(Cl)c(N9CCC(=O)NC9=O)c7)CC8)CC6)CC5)nc4c3F)c12 [Example 1] | 80 to 100%
CCc1cccc2cc(O)cc(-c3ncc4c(N5CCC[C@@](C)(O)C5)nc(OCC5(CN6CCN(CC7CCC8(CC7)CCN(C(=O)c7ccc(Cl)c(N9CCC(=O)NC9=O)c7)CC8)CC6)CC5)nc4c3F)c12 [Example 3] | 80 to 100%

Consider the additional compound presented here.
Fill blank: measured Dmax of the compound C#Cc1c(F)ccc2cc(O)cc(-c3ncc4c(N5CCC[C@@](C)(O)C5)nc(OCC5(CN6CCN(CC7CCC8(CC7)CCN(C(=O)c7ccc(OC)c(N9CCC(=O)NC9=O)c7)CC8)CC6)CC5)nc4c3F)c12 [Example 7] is ____.
80 to 100%

====

- Assayed Target: KRAS WT (expanded) protein in MKN1 cells (Homo sapiens)
- Construct: endogenous in cells; host or cells: MKN1 (MKN-1)
- Sequence (P01116 1-188 isoform P01116-2): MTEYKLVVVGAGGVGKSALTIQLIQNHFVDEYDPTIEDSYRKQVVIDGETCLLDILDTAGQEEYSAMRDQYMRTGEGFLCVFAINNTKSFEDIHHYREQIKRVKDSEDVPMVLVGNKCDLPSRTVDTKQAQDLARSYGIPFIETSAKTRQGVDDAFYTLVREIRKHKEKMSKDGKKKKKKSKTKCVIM
- Test: KRAS degradation assay (Western Blot) in MKN1 cells
- Type: cell-based
- Experimental Parameters: MKN-1, 24 h
As shown below, each of these molecules has a reported Dmax value.

Solved cases below.
Record Smiles | Quantity Name | Observed Value
C#Cc1c(F)ccc2cc(O)cc(-c3ncc4c(N5CCC[C@@](C)(O)C5)nc(OCC5(CN6CCN(CC7CCC8(CC7)CCN(C(=O)c7ccc(OC)c(N9CCC(=O)NC9=O)c7)CC8)CC6)CC5)nc4c3F)c12 | Dmax | 80 to 100%
CCc1cccc2cc(O)cc(-c3ncc4c(N5CCC[C@@](C)(O)C5)nc(OCC5(CN6CCN(CC7CCC8(CC7)CCN(C(=O)c7ccc(Cl)c(N9CCC(=O)NC9=O)c7)CC8)CC6)CC5)nc4c3F)c12 | Dmax | 80 to 100%

Return reported Dmax; argument: C#Cc1c(F)ccc2cc(O)cc(-c3ncc4c(N5CCC[C@@](C)(O)C5)nc(OCC5(CN6CCN(CC7CCC8(CC7)CCN(C(=O)c7ccc(Cl)c(N9CCC(=O)NC9=O)c7)CC8)CC6)CC5)nc4c3F)c12
80 to 100%
